- Target of assay: C-X-C chemokine receptor type 4 (Homo sapiens, UniProt P61073)
- Sequence (P61073 whole entry): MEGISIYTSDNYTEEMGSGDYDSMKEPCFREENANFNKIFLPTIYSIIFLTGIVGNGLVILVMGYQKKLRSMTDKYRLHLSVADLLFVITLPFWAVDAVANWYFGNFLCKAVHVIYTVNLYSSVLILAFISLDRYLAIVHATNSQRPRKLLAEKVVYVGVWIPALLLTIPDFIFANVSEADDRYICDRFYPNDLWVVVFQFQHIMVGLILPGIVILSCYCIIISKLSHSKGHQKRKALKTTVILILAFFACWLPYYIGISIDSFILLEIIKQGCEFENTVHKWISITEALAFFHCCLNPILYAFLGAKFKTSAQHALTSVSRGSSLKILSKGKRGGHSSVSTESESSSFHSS
- Assay summary: Antagonist activity at CXCR4 in human CCRF-CEM cells assessed as inhibition of anti-CXCR4 binding preincubated with compound for 45 mins followed by anti-CXCR4 PE antibody addition and measured after 30 mins by fluorescence based competitive binding assay
- Format: functional, cell-based
- Measurement conditions: ccrf-cem
Property: pIC50
For clarity, pIC50 is expressed as the negative log10 of concentration in mol/L.

Example results:
Data request, read-out pIC50, for CC(=O)N[C@@H](CCCNC(=N)N)C(=O)N[C@@H](C)C(=O)N[C@@H]1CCNC(=O)[C@H](CCC(=O)O)NC(=O)[C@H](Cc2c[nH]cn2)NC(=O)[C@H](Cc2ccc3ccccc3c2)NC(=O)[C@H](CCCNC(=N)N)NC1=O 6.11

Same thing, different compound: CC(=O)N[C@@H](CCCNC(=N)N)C(=O)N[C@@H](C)C(=O)N[C@@H]1CCCCNC(=O)[C@H](CC(=O)O)NC(=O)[C@H](Cc2c[nH]cn2)NC(=O)[C@H](Cc2ccc3ccccc3c2)NC(=O)[C@H](CCCNC(=N)N)NC1=O 5.77

Further cases:
For CC(=O)N[C@@H](CCCNC(=N)N)C(=O)N[C@@H](C)C(=O)N[C@@H]1CCCNC(=O)[C@H](CC(=O)O)NC(=O)[C@H](Cc2c[nH]cn2)NC(=O)[C@H](Cc2ccc3ccccc3c2)NC(=O)[C@H](CCCNC(=N)N)NC1=O , what is its reported pIC50? 6.02

Input CC(=O)N[C@@H](CCCNC(=N)N)C(=O)N[C@@H](C)C(=O)N[C@@H]1CNC(=O)[C@H](Cc2ccccc2)NC(=O)[C@H](Cc2c[nH]cn2)NC(=O)[C@H](Cc2ccc3ccccc3c2)NC(=O)[C@H](CCCNC(=N)N)NC1=O 6.46

====

- Target of assay: C-X-C chemokine receptor type 4 (Homo sapiens, UniProt P61073)
- Assay summary: Antagonist activity at CXCR4 in human CCRF-CEM cells assessed as inhibition of anti-CXCR4 binding preincubated with compound for 45 mins followed by anti-CXCR4 PE antibody addition and measured after 30 mins by fluorescence based competitive binding assay
- Assay type: functional, cell-based
Property: IC50 (nM)
Quick reminder: number only, in nM, skip the unit.

# count of solved cases: 3
Reported IC50, compound CC(=O)N[C@@H](CCCNC(=N)N)C(=O)N[C@@H](C)C(=O)N[C@@H]1CNC(=O)[C@@H](CC(=O)O)NC(=O)[C@H](Cc2c[nH]cn2)NC(=O)[C@H](Cc2ccc3ccccc3c2)NC(=O)[C@H](CCCNC(=N)N)NC1=O : ____ 100

Repeat for the following compound: CC(=O)N[C@@H](CCCNC(=N)N)C(=O)N[C@@H](C)C(=O)N[C@H]1CNC(=O)[C@@H](CCC(=O)O)NC(=O)[C@H](Cc2c[nH]cn2)NC(=O)[C@H](Cc2ccc3ccccc3c2)NC(=O)[C@H](CCCNC(=N)N)NC1=O 50

Next compound: CC(=O)N[C@@H](CCCNC(=N)N)C(=O)N[C@@H](C)C(=O)N[C@@H]1CSSC(C)(C)[C@@H](C(=O)O)NC(=O)[C@H](Cc2cnc[nH]2)NC(=O)[C@H](Cc2ccc3ccccc3c2)NC(=O)[C@H](CCCNC(=N)N)NC1=O 1

// next item, IC50 requested
// returns reported IC50 for input CC(=O)N[C@@H](CCCNC(=N)N)C(=O)N[C@@H](C)C(=O)N[C@H]1CNC(=O)[C@@H](CC(=O)O)NC(=O)[C@H](Cc2c[nH]cn2)NC(=O)[C@H](Cc2ccc3ccccc3c2)NC(=O)[C@H](CCCNC(=N)N)NC1=O 187

====

- Assay summary: Stability of the compound assessed as parent compound remaining in PBS buffer at pH 7.4 at 10 uM measured after 1 hr in presence of glutathione by RP-HPLC analysis
- Format: physicochemical
- Measurement conditions: PBS buffer with glutathione, read-out: Stability
Property: remaining at 1 h, 10 µM

Need remaining at 1 h, 10 µM of CC(=O)N[C@@H](CCCNC(=N)N)C(=O)N[C@@H](C)C(=O)N[C@@H]1CSSC(C)(C)[C@@H](C(=O)O)NC(=O)[C@H](Cc2cnc[nH]2)NC(=O)[C@H](Cc2ccc3ccccc3c2)NC(=O)[C@H](CCCNC(=N)N)NC1=O , thanks. ~88%

====

Listed next: entries and their corresponding IC50.
- Target of assay: C-X-C chemokine receptor type 4 (Homo sapiens, UniProt P61073)
- Assay summary: Antagonist activity at CXCR4 in human CCRF-CEM cells assessed as inhibition of anti-CXCR4 binding preincubated with compound for 45 mins followed by anti-CXCR4 PE antibody addition and measured after 30 mins by fluorescence based competitive binding assay
- Format: functional, cell-based
- Measurement conditions: ccrf-cem
# value in nM; strip the unit string

Reference set (2 entries):
What value of measured IC50 is listed for CC(=O)N[C@@H](CCCNC(=N)N)C(=O)N[C@@H](C)C(=O)N[C@@H]1CNC(=O)[C@H](CCC(N)=O)NC(=O)[C@H](Cc2c[nH]cn2)NC(=O)[C@H](Cc2ccc3ccccc3c2)NC(=O)[C@H](CCCNC(=N)N)NC1=O ? 243

Try this molecule next: CC(=O)N[C@@H](CCCNC(=N)N)C(=O)N[C@@H](C)C(=O)N[C@@H]1CCNC(=O)[C@H](CC(=O)O)NC(=O)[C@H](Cc2c[nH]cn2)NC(=O)[C@H](Cc2ccc3ccccc3c2)NC(=O)[C@H](CCCNC(=N)N)NC1=O 200

Switching to the query record.
Which IC50 is listed for CC(=O)N[C@@H](CCCNC(=N)N)C(=O)N[C@@H](C)C(=O)N[C@@H]1CNC(=O)[C@H](CCC(C)C)NC(=O)[C@H](Cc2c[nH]cn2)NC(=O)[C@H](Cc2ccc3ccccc3c2)NC(=O)[C@H](CCCNC(=N)N)NC1=O ? 113
